Target: human calcium receptor (Homo sapiens)
Sequence (P41180 20-1078): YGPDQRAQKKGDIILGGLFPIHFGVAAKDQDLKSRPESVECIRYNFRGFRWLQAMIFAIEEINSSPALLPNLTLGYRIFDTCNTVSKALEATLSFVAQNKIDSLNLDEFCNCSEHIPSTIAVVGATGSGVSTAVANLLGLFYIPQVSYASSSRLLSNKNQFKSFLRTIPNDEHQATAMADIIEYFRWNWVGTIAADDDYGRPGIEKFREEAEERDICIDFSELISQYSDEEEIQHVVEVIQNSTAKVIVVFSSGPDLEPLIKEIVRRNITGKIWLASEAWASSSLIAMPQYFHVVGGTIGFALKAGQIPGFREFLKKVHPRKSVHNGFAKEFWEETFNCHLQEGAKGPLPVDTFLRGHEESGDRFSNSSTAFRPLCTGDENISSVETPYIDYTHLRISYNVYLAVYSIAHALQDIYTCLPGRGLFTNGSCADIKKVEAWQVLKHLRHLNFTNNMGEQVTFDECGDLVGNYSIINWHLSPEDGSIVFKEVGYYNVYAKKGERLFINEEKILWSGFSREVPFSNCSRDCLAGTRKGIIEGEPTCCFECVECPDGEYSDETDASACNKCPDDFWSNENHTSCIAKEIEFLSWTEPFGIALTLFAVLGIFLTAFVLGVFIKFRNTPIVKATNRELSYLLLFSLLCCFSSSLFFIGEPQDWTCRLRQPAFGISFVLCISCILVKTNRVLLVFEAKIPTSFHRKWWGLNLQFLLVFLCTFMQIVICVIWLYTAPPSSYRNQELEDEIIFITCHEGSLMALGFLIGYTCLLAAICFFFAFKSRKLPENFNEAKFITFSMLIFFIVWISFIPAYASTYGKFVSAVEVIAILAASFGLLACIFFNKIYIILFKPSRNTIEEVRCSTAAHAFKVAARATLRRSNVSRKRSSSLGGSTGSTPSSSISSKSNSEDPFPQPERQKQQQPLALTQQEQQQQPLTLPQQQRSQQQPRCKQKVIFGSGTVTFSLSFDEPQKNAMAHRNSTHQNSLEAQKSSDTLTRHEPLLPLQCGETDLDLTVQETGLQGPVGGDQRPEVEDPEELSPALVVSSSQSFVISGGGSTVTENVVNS
Experiment: Activity on calcium receptors: fluo-3 fluorescence in HEK293 cells transfected with human calcium receptor gene
Conditions: HEK293 cells transfected with plasmid pHuPCaR4.0 (human calcium receptor gene), loaded with fluo-3; 1 mM CaCl2, 1 mM MgCl2
Friendly reminder: EC50 below 100 nM is yes, at or above is no.

Solved entries:
COc1cccc(C(C)NCCCCCCCSc2cccc(Br)c2)c1 (stereo not drawn)	no
Cc1ccc(CN(Cc2ccc(C)cc2)C(=O)CCN[C@H](C)c2cccc3ccccc23)cc1	no
C[C@@H](NCCC(=O)N(Cc1ccc(Cl)cc1)Cc1ccc(Cl)cc1)c1cccc2ccccc12	yes
COc1ccc(CN(Cc2ccc(Cl)c(Cl)c2)C(=O)CCN[C@H](C)c2cccc3ccccc23)cc1	yes
COc1cccc(C(C)NCCCCSc2c(Cl)cccc2Cl)c1 (stereo not drawn)	no
COc1cccc(C(C)NCCCSc2ccccc2Cl)c1 (stereo not drawn)	no

Quick check: does COc1cccc(C(C)NCCCCCCSc2cccc(Br)c2)c1 (stereo not drawn) have EC50 under 100 nM? no

State whether 100 nM exceeds EC50 recorded for COc1cccc(C(C)NCCCCOc2cccc(Cl)c2)c1 (stereo not drawn) . no

Confirm or reject: EC50 of C[C@@H](NCCCCCCCSc1c(F)c(F)cc(F)c1F)c1cccc2ccccc12 lies strictly below 100 nM no
